- Test system: LOX IMVI melanoma
- assayDetails: NCI tumour cell line growth inhibition, 48 h
measuredAttribute: GI50

Guide cases for GI50, answers given:
1. O=C(Oc1ccccc1Cl)c1ccccc1Nc1cccc(C(F)(F)F)c1: 11.9 µM
2. C=C(C)[C@@H]1CC[C@]2(C(=O)O)CC[C@]3(C)[C@H](CC[C@@H]4[C@@]5(C)C/C(=C/c6cccc(I)c6)C(=O)C(C)(C)[C@@H]5CC[C@]43C)[C@@H]12: 1.72 µM
3. Cc1ccc(-c2cc(-c3ccc(C)cc3)nc(N3CCN(CCNc4ccnc5cc(Cl)ccc45)CC3)n2)cc1: 1.82 µM

What does the data say about its GI50? Entry: O=C(Nc1ccc(Nc2ccncc2)cc1)c1ccc(Nc2ccnc3ccc([N+](=O)[O-])cc23)cc1[N+](=O)[O-]
4.82 µM

This collection of values is drawn from PubChem BioAssay (NCI).
